The compounds listed here are annotated with their MIC.
Test system: Pseudomonas aeruginosa
Assay: Antibacterial activity against Pseudomonas aeruginosa ATCC 27853 by CLSI based broth microdilution method
Assay type: functional
Answer in µg/mL, number only, no unit symbol.

# Compound string, Study system, Recorded result
records = [
    ("CC(C)C[C@@H]1NC(=O)[C@@H](CC2CCCCC2)NC(=O)[C@H](CCN)NC(=O)[C@@H](NC(=O)[C@H](CN)NC(=O)[C@@H](NC(=O)C[C@H](CN)C2CCCCC2)[C@@H](C)O)CCNC(=O)[C@H]([C@@H](C)O)NC(=O)[C@H](CCN)NC(=O)[C@H](CCN)NC1=O", "Pseudomonas aeruginosa", 0.5),
]

Proceed to the following item.
Pseudomonas aeruginosa assay, compound `CC[C@H](C)CCCCC(=O)N[C@@H](CCN)C(=O)N[C@H](C(=O)N[C@@H](CCN)C(=O)N[C@H]1CCNC(=O)[C@H]([C@@H](C)O)NC(=O)[C@H](CCN)NC(=O)[C@H](CCN)NC(=O)[C@H](CC(C)C)NC(=O)[C@@H](Cc2ccc(Br)cc2)NC(=O)[C@H](CCN)NC1=O)[C@@H](C)O` , recorded MIC = 0.5

###

Assay: Ratio of test compound IC50 to polymyxin B IC50 for cytotoxicity against human HK2 cells incubated for 24 hrs by resazurin blue dye based assay
Format: cell-based
Details: HK-2 cells, read-out: Ratio IC50
Numbered stars: 1 amine (or outer) side, 2 acyl side, 3 side chain; on linkers, the order of the positions; unused ones are H or OH. Bridge positions count the residues as written; N and C are the ends. Square brackets hold non-standard residues; d marks the D form. Peptide text beside a SMILES is read from it. * marks the point of attachment. X2 = O=C([C@@H](Cc1ccc(-c2ccncc2)cc1)N[*:1])[*:2]; GABA(3R-Bn) = O=C(C[C@H](CN[*:1])Cc1ccccc1)[*:2]; X1 = CC[C@H](C)CCCCC(=O)*; Dab = NCC[C@H](N)C(=O)O; Dap = NC[C@H](N)C(=O)O
The molecules listed here are annotated with their selectivity ratio at 24 h.
Lab note: write the figure by itself, no unit.

Consider the worked cases shown below.
# Molecule, selectivity ratio at 24 h
measured = [
    ("CC(C)C[C@@H]1NC(=O)[C@@H](Cc2ccccc2)NC(=O)[C@H](CCN)NC(=O)[C@@H](NC(=O)[C@H](CN)NC(=O)[C@@H](NC(=O)[C@@H]2CNCCN2CC(C)C)[C@@H](C)O)CCNC(=O)[C@H]([C@@H](C)O)NC(=O)[C@H](CCN)NC(=O)[C@H](CCN)NC1=O", 16.6),
    ("CC[C@H](C)CCCCC(=O)N[C@@H](CCN)C(=O)N[C@H](C(=O)N[C@@H](CCN)C(=O)N[C@H]1CCNC(=O)[C@H]([C@@H](C)O)NC(=O)[C@H](CCN)NC(=O)[C@H](CCN)NC(=O)[C@H](CC(C)C)NC(=O)[C@@H](Cc2ccccc2)NC(=O)[C@H](CCN)NC1=O)[C@@H](C)O (X1-[Dab]T[Dab][Dab][Dab][dF]L[Dab][Dab]T; lactam 4-C)", 1),
    ("CC(C)C[C@@H]1NC(=O)[C@@H](Cc2ccc(-c3ccccc3)cc2)NC(=O)[C@H](CCN)NC(=O)[C@@H](NC(=O)[C@H](CN)NC(=O)[C@@H](NC(=O)[C@@H]2CNCCN2CC(C)C)[C@@H](C)O)CCNC(=O)[C@H]([C@@H](C)O)NC(=O)[C@H](CCN)NC(=O)[C@H](CCN)NC1=O", 2.4),
]

Noted for CC[C@H](C)CCCCC(=O)N[C@@H](CCN)C(=O)N[C@H](C(=O)N[C@@H](CCN)C(=O)N[C@H]1CCNC(=O)[C@H]([C@@H](C)O)NC(=O)[C@H](CCN)NC(=O)[C@H](CCN)NC(=O)[C@H](CC(C)C)NC(=O)[C@@H](Cc2ccc(-c3ccncc3)cc2)NC(=O)[C@H](CCN)NC1=O)[C@@H](C)O (X1-[Dab]T[Dab][Dab][Dab][X2]L[Dab][Dab]T; lactam 4-C) : its selectivity ratio at 24 h reads 0.7

Noted for `CC(C)C[C@@H]1NC(=O)[C@@H](Cc2ccccc2)NC(=O)[C@H](CCN)NC(=O)[C@@H](NC(=O)[C@H](CN)NC(=O)[C@@H](NC(=O)C[C@H](CN)C2CCCCC2)[C@@H](C)O)CCNC(=O)[C@H]([C@@H](C)O)NC(=O)[C@H](CCN)NC(=O)[C@H](CCN)NC1=O` : its selectivity ratio at 24 h reads 6.9

Noted for CC(C)C[C@@H]1NC(=O)[C@@H](Cc2ccccc2)NC(=O)[C@H](CCN)NC(=O)[C@@H](NC(=O)[C@H](CN)NC(=O)[C@@H](NC(=O)C[C@H](CN)Cc2ccccc2)[C@@H](C)O)CCNC(=O)[C@H]([C@@H](C)O)NC(=O)[C@H](CCN)NC(=O)[C@H](CCN)NC1=O ({GABA(3R-Bn)}-T[Dap][Dab][Dab][dF]L[Dab][Dab]T; lactam 3-C) : its selectivity ratio at 24 h reads 12

###

Tested on: Escherichia coli
Experiment: Antibacterial activity against Escherichia coli IHMA 940398 by CLSI based broth microdilution method
Type: functional
Numbered stars: 1 amine (or outer) side, 2 acyl side, 3 side chain; on linkers, the order of the positions; unused ones are H or OH. Bridge positions count the residues as written; N and C are the ends. Square brackets hold non-standard residues; d marks the D form. Peptide text beside a SMILES is read from it. * marks the point of attachment. X2 = O=C([C@@H](Cc1ccc(-c2ccncc2)cc1)N[*:1])[*:2]; X1 = CC[C@H](C)CCCCC(=O)*; Dab = NCC[C@H](N)C(=O)O
Reported endpoint: MIC (µg/mL)
Answer in µg/mL, number only, no unit symbol.

Consider the worked cases shown below.
# Compound, MIC / µg/mL
rows = [
    ("CC[C@H](C)CCCCC(=O)N[C@@H](CCN)C(=O)N[C@H](C(=O)N[C@@H](CCN)C(=O)N[C@H]1CCNC(=O)[C@H]([C@@H](C)O)NC(=O)[C@H](CCN)NC(=O)[C@H](CCN)NC(=O)[C@H](CC(C)C)NC(=O)[C@@H](Cc2ccc(-c3ccncc3)cc2)NC(=O)[C@H](CCN)NC1=O)[C@@H](C)O (X1-[Dab]T[Dab][Dab][Dab][X2]L[Dab][Dab]T; lactam 4-C)", 32),
    ("CC(C)C[C@@H]1NC(=O)[C@@H](CC2CCCCC2)NC(=O)[C@H](CCN)NC(=O)[C@@H](NC(=O)[C@H](CCN)NC(=O)[C@@H](NC(=O)C[C@H](CN)Cc2ccccc2)[C@@H](C)O)CCNC(=O)[C@H]([C@@H](C)O)NC(=O)[C@H](CCN)NC(=O)[C@H](CCN)NC1=O", 32),
    ("CC(C)C[C@@H]1CNC[C@@H](C(=O)N[C@H](C(=O)N[C@@H](CN)C(=O)N[C@H]2CCNC(=O)[C@H]([C@@H](C)O)NC(=O)[C@H](CCN)NC(=O)[C@H](CCN)NC(=O)[C@H](CC(C)C)NC(=O)[C@@H](Cc3ccc(-c4ccccc4)cc3)NC(=O)[C@H](CCN)NC2=O)[C@@H](C)O)C1", 2),
]

Noted for `CC(C)C[C@@H]1NC(=O)[C@@H](Cc2ccc(-c3ccccc3)cc2)NC(=O)[C@H](CCN)NC(=O)[C@@H](NC(=O)[C@H](CN)NC(=O)[C@@H](NC(=O)[C@@H]2CNCCN2CC(C)C)[C@@H](C)O)CCNC(=O)[C@H]([C@@H](C)O)NC(=O)[C@H](CCN)NC(=O)[C@H](CCN)NC1=O` : its MIC reads 8

Noted for `CC(C)C[C@@H]1NC(=O)[C@@H](Cc2ccccc2)NC(=O)[C@H](CCN)NC(=O)[C@@H](NC(=O)[C@H](CN)NC(=O)[C@@H](NC(=O)C[C@H](CN)C2CCCCC2)[C@@H](C)O)CCNC(=O)[C@H]([C@@H](C)O)NC(=O)[C@H](CCN)NC(=O)[C@H](CCN)NC1=O` : its MIC reads 16

Noted for `CC(C)C[C@@H]1NC(=O)[C@@H](Cc2ccccc2)NC(=O)[C@H](CCN)NC(=O)[C@@H](NC(=O)[C@H](CN)NC(=O)[C@@H](NC(=O)[C@@H]2CNCCN2CC(C)C)[C@@H](C)O)CCNC(=O)[C@H]([C@@H](C)O)NC(=O)[C@H](CCN)NC(=O)[C@H](CCN)NC1=O` : its MIC reads 32

Noted for `CC[C@H](C)CCCCC(=O)N[C@@H](CCN)C(=O)N[C@H](C(=O)N[C@@H](CCN)C(=O)N[C@H]1CCNC(=O)[C@H]([C@@H](C)O)NC(=O)[C@H](CCN)NC(=O)[C@H](CCN)NC(=O)[C@H](CC(C)C)NC(=O)[C@@H](Cc2ccc(Br)cc2)NC(=O)[C@H](CCN)NC1=O)[C@@H](C)O` : its MIC reads 4

These measurements were taken from ChEMBL document CHEMBL4619736.
